Hey, just so you know, these numbers are from patent US20260216294A1.

Test system: L6-myotubes
Test: Glucose uptake in differentiated L6-myotubes (Biological Example 2)
Format: cell-based
Conditions: glucose uptake in differentiated L6-myotubes; compound at 10 μM, activity relative to isoproterenol at 10 μM; read-out: Biological example 2 (GU)
Entries and their Emax at 10 µM values follow.

{"structure as smiles": "CO[C@H]1CC[C@@H](CNC[C@H](O)c2cccc(F)c2)CC1", "Emax at 10 µM": "50 to 75%"}
{"structure as smiles": "CC12CC(C1)[C@H]([C@@H](O)c1cccc(N)c1F)N2", "Emax at 10 µM": "50 to 75%"}
{"structure as smiles": "COC(=O)[C@H]1CC[C@@H](CCC(C)(C)NC[C@H](O)c2cncc(F)c2)CC1", "Emax at 10 µM": "> 75%"}
{"structure as smiles": "COc1ccc(CCC23CCC([C@H](O)c4cncc(F)c4)(CC2)N3)cc1", "Emax at 10 µM": "50 to 75%"}
{"structure as smiles": "CO[C@H]1CC[C@H](C(C)(C)NC[C@H](O)c2cncc(F)c2)CC1", "Emax at 10 µM": "> 75%"}
{"structure as smiles": "O[C@@H](c1cccc(F)c1)C12CCC(CCCc3ccccc3)(CC1)N2", "Emax at 10 µM": "25 to 50%"}
{"structure as smiles": "CC12CC(C1)[C@H]([C@@H](O)c1cncc(F)c1)N2", "Emax at 10 µM": "< 25%"}
{"structure as smiles": "CC(=O)N[C@H]1CC[C@H](C(C)(C)NC[C@H](O)c2cccc(F)c2)CC1", "Emax at 10 µM": "> 75%"}
{"structure as smiles": "O[C@@H](CNCCC[C@H]1CC[C@@H](OCc2ccccc2)CC1)c1cncc(F)c1", "Emax at 10 µM": "50 to 75%"}
{"structure as smiles": "CC(C)(C[C@H]1CC[C@H](NS(C)(=O)=O)CC1)NC[C@H](O)c1cccc(F)c1", "Emax at 10 µM": "> 75%"}

Given "CS(=O)(=O)N[C@H]1CC[C@H](CNC[C@H](O)c2cccc(F)c2)CC1" , state its recorded Emax at 10 µM.
50 to 75%

Given "O[C@H](c1cncc(F)c1)C12CCC(COCc3ccc(F)cc3)(CC1)N2" , state its recorded Emax at 10 µM.
> 75%

Given "COC(=O)[C@H]1CC[C@H](CCC(C)(C)NC[C@H](O)c2cncc(F)c2)CC1" , state its recorded Emax at 10 µM.
> 75%

###

System: L6-myotubes
Test: Glucose uptake in differentiated L6-myotubes (Biological Example 2)
Format: cell-based
Conditions: glucose uptake; compound at 10 μM relative to isoproterenol at 10 μM; read-out: Biological example 2 (GU)
recorded endpoint: Emax at 10 µM

{"structure as smiles": "CCCCNC[C@H](O)c1ccc(O)cc1", "Emax at 10 µM": "> 75%"}
{"structure as smiles": "CC1(C)CC[C@H]([C@H](O)c2ccccc2Cl)N1", "Emax at 10 µM": "> 75%"}

Given "CCC[C@@H]1CCC[C@H]([C@@H](O)c2cccc(F)c2)N1" , state its recorded Emax at 10 µM.
25 to 50%

###

System: L6-myotubes
Assay: Glucose uptake in differentiated L6-myotubes (Biological Example 2)
Assay type: cell-based
Conditions: glucose uptake; compound at 10 μM relative to isoproterenol at 10 μM; read-out: Biological example 2 (GU)
recorded endpoint: Emax at 10 µM

Worked cases, answers included:
{"compound": "CC1(C)CC[C@@H]([C@H](O)c2cccc(O)c2)N1", "Emax at 10 µM": "25 to 50%"}
{"compound": "CCC[C@H]1CCC[C@@H]([C@H](O)c2cccc(Cl)c2)N1", "Emax at 10 µM": "25 to 50%"}
{"compound": "CCC[C@@H]1CCC[C@H]([C@@H](O)c2cccc(O)c2)N1", "Emax at 10 µM": "25 to 50%"}
{"compound": "CCCCNCC(O)c1ccc(F)c(N)c1F (stereo not shown)", "Emax at 10 µM": "> 75%"}
{"compound": "CCC[C@@H]1CC[C@H]([C@H](O)c2ccccc2Cl)N1", "Emax at 10 µM": "> 75%"}
{"compound": "CCCCNC(C)C(O)c1ccc(O)cc1 (stereo not shown)", "Emax at 10 µM": "50 to 75%"}

Given CCCCNCC(O)c1ccc(F)c(N)c1 (stereo not shown) , state its recorded Emax at 10 µM.
50 to 75%

###

Tested on: L6-myotubes
Assay: Glucose uptake in differentiated L6-myotubes (Biological Example 2)
Type: cell-based
Details: glucose uptake in differentiated L6-myotubes; compound at 10 μM, activity relative to isoproterenol at 10 μM; read-out: Biological example 2 (GU)
recorded endpoint: Emax at 10 µM

Worked cases, answers included:
{"structure as smiles": "O[C@@H](CNC[C@H]1CC[C@H](OCc2ccccc2)CC1)c1cccc(F)c1", "Emax at 10 µM": "25 to 50%"}
{"structure as smiles": "CS(=O)(=O)Nc1ccc(CC23CCC([C@H](O)c4cccc(F)c4)(CC2)N3)cc1", "Emax at 10 µM": "50 to 75%"}
{"structure as smiles": "CC(C)(C[C@H]1CC[C@H](NC(=O)C2CCC2)CC1)NC[C@H](O)c1cccc(F)c1", "Emax at 10 µM": "> 75%"}

Given "O[C@@H](c1cccc(F)c1)[C@H]1CC[C@H](Cc2ccc(Cl)cc2)N1" , state its recorded Emax at 10 µM.
50 to 75%

Given "CC(C)(C[C@H]1CC[C@@H](NC(=O)OC(C)(C)C)CC1)NC[C@H](O)c1cccc(C(F)(F)F)n1" , state its recorded Emax at 10 µM.
< 25%

###

Test system: L6-myotubes
Assay: Glucose uptake in differentiated L6-myotubes (Biological Example 2)
Format: cell-based
Conditions: glucose uptake in differentiated L6-myotubes; compound at 10 μM, activity relative to isoproterenol at 10 μM; read-out: Biological example 2 (GU)
recorded endpoint: Emax at 10 µM

Worked cases, answers included:
{"structure as smiles": "CC(C)(C[C@H]1CC[C@@H](N)CC1)NC[C@H](O)c1cccc(F)c1", "Emax at 10 µM": "> 75%"}
{"structure as smiles": "CO[C@H]1CC[C@H](CCNC[C@H](O)c2cccc(F)c2)CC1", "Emax at 10 µM": "25 to 50%"}
{"structure as smiles": "CC(C)(C[C@H]1CC[C@H](NC(=O)c2ccccc2)CC1)NC[C@H](O)c1cccc(F)c1", "Emax at 10 µM": "> 75%"}
{"structure as smiles": "CC(C)(C[C@H]1CC[C@H](NS(C)(=O)=O)CC1)NC[C@H](O)c1cccc(C(F)(F)F)n1", "Emax at 10 µM": "25 to 50%"}

Given "CC(C)(C[C@H]1CC[C@@H](NS(=O)(=O)C(F)(F)F)CC1)NC[C@H](O)c1cncc(F)c1" , state its recorded Emax at 10 µM.
> 75%

Given "COc1ccc(C[C@H]2CC[C@H]([C@@H](O)c3cncc(F)c3)N2)cc1" , state its recorded Emax at 10 µM.
> 75%

Given "COc1ccc(C[C@@H]2CC[C@H]([C@H](O)c3cncc(F)c3)N2)cc1" , state its recorded Emax at 10 µM.
> 75%

Given "CO[C@H]1CC[C@@H](C(C)(C)NC[C@H](O)c2cccc(F)c2)CC1" , state its recorded Emax at 10 µM.
< 25%

Given "O[C@@H](c1cccc(F)c1)C12CCC(COCc3ccc(F)cc3)(CC1)N2" , state its recorded Emax at 10 µM.
< 25%

###

Test system: L6-myotubes
Test: Glucose uptake in differentiated L6-myotubes (Biological Example 2)
Type: cell-based
Details: glucose uptake in differentiated L6-myotubes; compound at 10 μM, activity relative to isoproterenol at 10 μM; read-out: Biological example 2 (GU)
recorded endpoint: Emax at 10 µM

{"compound": "CC12CC(C1)[C@@H]([C@H](O)c1cncc(F)c1)N2 [Compound 223]", "measured result": "25 to 50%"}
{"compound": "O[C@@H](CNCCC[C@H]1CC[C@H](OCc2ccccc2)CC1)c1cncc(F)c1 [Compound 276]", "measured result": "25 to 50%"}
{"compound": "CC(C)(NC[C@H](O)c1cncc(F)c1)[C@H]1CC[C@H](OCc2ccccc2)CC1 [Compound 281]", "measured result": "50 to 75%"}
{"compound": "O[C@H](c1cncc(F)c1)[C@H]1CC[C@H](Cc2ccc(Cl)cc2)N1 [Compound 406]", "measured result": "> 75%"}
{"compound": "CC1(C)CC[C@H]([C@H](O)c2cccc(N)c2F)N1 [Compound 227]", "measured result": "> 75%"}
{"compound": "O[C@@H](CNCC[C@H]1CC[C@H](OCc2ccccc2)CC1)c1cncc(F)c1 [Compound 292]", "measured result": "< 25%"}
{"compound": "CC(C)(C[C@H]1CC[C@@H](NC(=O)C2CC2)CC1)NC[C@H](O)c1cccc(F)c1 [Compound 447]", "measured result": "> 75%"}

Given CO[C@H]1CC[C@H](C[C@@H]2CC[C@H]([C@@H](O)c3cccc(F)c3)N2)CC1 [Compound 325] , state its recorded Emax at 10 µM.
> 75%
